- System: gephE
- Run Description: µSPOT peptide microarray binding assay with recombinant gephE
- Protocol Conditions: µSPOT peptide microarray, GlyRβ full positional scan, recombinant gephE; intensity normalised to wild-type sequence DLRSNDFSIVGSLPR (=1)
Metric: gephE Binding Intensity [norm.] (norm.)
Just the number please, in norm., no unit attached.

Identify measured gephE Binding Intensity [norm.] corresponding to DLRSRDFSIVGSLPR [GlyRβ_Full_Positional_Scan_092]
0.89

Identify measured gephE Binding Intensity [norm.] corresponding to DFRSNDFSIVGSLPR [GlyRβ_Full_Positional_Scan_027]
0.98

Identify measured gephE Binding Intensity [norm.] corresponding to DLRSNDFSILGSLPR [GlyRβ_Full_Positional_Scan_184, GlyR β 414-428 variant V423L]
0.39

Identify measured gephE Binding Intensity [norm.] corresponding to DLQSNDFSIVGSLPR [GlyRβ_Full_Positional_Scan_060]
0.91

Identify measured gephE Binding Intensity [norm.] corresponding to YLRSNDFSIVGSLPR [GlyRβ_Full_Positional_Scan_009]
1.05
